assay: Aqueous solubility; format: physicochemical; details: aqueous (not further specified); Table 3; read-out: Aqueous Solubility
metric: solubility (µM)

The examples below pair each entry with its known result.
compound	solubility [µM]
O=c1cc(-c2ccc(O)c(Br)c2)oc2c(Cl)cc(Cl)cc12 [JKT.715A]	120
O=c1cc(-c2ccc(O)c(Br)c2)oc2c(Br)cccc12 [JKT.744B]	5
O=c1cc(-c2ccc(O)c(Cl)c2)oc2c(Cl)cc(Cl)cc12 [JKT.725A]	39.9
O=c1cc(-c2ccc(O)c(I)c2)oc2c(Br)cc(Br)cc12 [JKT.724A]	11.2
O=c1cc(-c2ccc(O)c(Br)c2)oc2c(Br)cc(Cl)cc12 [JKT.714A]	35.2

A: COc1c(Br)cc2c(=O)cc(-c3cc(F)c(O)c(F)c3)oc2c1Br [JKT.753A]
B: O=c1cc(-c2ccc(O)c(Br)c2)oc2ccc(Cl)cc12 [JKT.778A]
Challenge: Lowest solubility? choose A or B Provide the label of your selected option as the answer.
Response given: B

P: COc1c(Br)cc2c(=O)cc(-c3ccc(O)c(C(F)(F)F)c3)oc2c1Br [JKT.750A]
Q: O=c1cc(-c2ccc(O)c(Cl)c2)oc2c(Br)cc(Br)cc12 [JKT.721A]
Challenge: Lowest solubility? choose P or Q Provide the label of your selected option as the answer.
Response given: Q

====

assay: Aqueous solubility; assay type: physicochemical; details: aqueous medium (not further specified); Table 8; read-out: Aqueous Solubility
metric: solubility (µM)

compound	measurement-unit	reported
O=c1[nH]c(-c2cc(Cl)c(O)c(Cl)c2)nc2c(Br)cccc12 [JKT.829A]	µM	193
O=c1[nH]c(-c2ccc(O)c(C(F)(F)F)c2)nc2c(Br)cc(Br)cc12 [JKT.775A]	µM	17.9
O=c1[nH]c(-c2cc(F)c(O)c(F)c2)nc2c(Br)cccc12 [JKT.830A]	µM	171

P: O=c1[nH]c(-c2cc(F)c(O)c(F)c2)nc2c(Cl)cc(Cl)cc12 [JKT.808A]
Q: O=c1[nH]c(-c2ccc(O)c(Br)c2)nc2c(Br)cccc12 [JKT.827A]
R: O=c1[nH]c(-c2ccc(O)c(Cl)c2)nc2c(Br)cccc12 [JKT.828A]
S: O=c1[nH]c(-c2cc(Cl)c(O)c(Cl)c2)nc2c(Cl)cc(Cl)cc12 [JKT.807A]
Challenge: Arrange the 4 compounds by rising solubility, starting with the smallest. Your task in answering is to list the labels in the requested order.
Response given: Q, R, S, P

====

system: IL-6 secretion; test: IL-6 secretion assay in astrocytes (Promega Lumit IL-6 kit); assay type: cell-based, human; conditions: Homo sapiens, Astrocyte; Table 11; read-out: IL6-Inhib.
metric: IC50 (µM)

compound	IC50 (µM)
COc1c(Br)cc2c(c1Br)O/C(=C\c1ccc(O)cc1Br)C2=O [JKT.760A]	9.4
O=C1/C(=C/c2cc(Cl)c(O)c(Cl)c2)Oc2c(Br)cc(Br)cc21 [JKT.822A]	2

1: COc1ccc2c(c1Br)O/C(=C\c1cc(Cl)c(O)c(Cl)c1)C2=O [JKT.824A]
2: COc1c(Br)cc2c(c1Br)O/C(=C\c1ccc(O)c(Cl)c1)C2=O [JKT.761A]
Challenge: Lowest IC50? choose 1 or 2 Provide the label of your selected option as the answer.
Response given: 2

A: COc1cc(/C=C2\Oc3c(cc(Br)c(OC)c3Br)C2=O)ccc1O [JKT.764A]
B: COc1c(Br)cc2c(c1Br)O/C(=C\c1cc(Cl)c(O)c(Cl)c1)C2=O [JKT.823A]
Challenge: Which item exceeds the other in IC50, A or B ? Provide the label of your selected option as the answer.
Response given: A
(A: 12 µM, B: 5.5 µM)
